The measurements presented in this section are drawn from patent US20260167620A1.

ASSAY_COMMENT: Rat absorption test
Format: in vivo
CONDITION_DETAILS: SD rats, intragastric 10 mg/kg, plasma
ENDPOINT_LABEL: DNAUC

{"columns": ["COMPOUND", "EXPERIMENTAL_VALUE"],
 "data": [
  ["NC(=O)c1nnc(N2CCCCC2)nc1Nc1ccc(N2CCN(CC3CCN(c4ncc(-c5ccc(=O)[nH]n5)cc4C(F)(F)F)CC3)CC2)c(F)c1", "372 AUC (h*ng/mL)/dose (mg/kg)"],
  ["NC(=O)c1nnc(N2CCCCC2)nc1Nc1ccc(N2CCN(CC3CCN(c4ccc(NC5CCC(=O)NC5=O)nc4)CC3)CC2)c(F)c1 (centres unmarked)", "285 AUC (h*ng/mL)/dose (mg/kg)"],
  ["NC(=O)c1nnc(N2CCCCC2)nc1Nc1ccc(N2CCC(CN3CCN(c4cc5c(cc4F)C(=O)N(C4CCC(=O)NC4=O)C5=O)CC3)CC2)c(F)c1 (centres unmarked)", "716 AUC (h*ng/mL)/dose (mg/kg)"],
  ["NC(=O)c1nnc(N2CCCCC2)nc1Nc1ccc(C2CCN(CC3CCN(c4ccc5c(c4)C(=O)N(C4CCC(=O)NC4=O)C5=O)C3)CC2)c(F)c1 (centres unmarked)", "252 AUC (h*ng/mL)/dose (mg/kg)"],
  ["NC(=O)c1nnc(N2CCCCC2)nc1Nc1ccc(N2CCN(CC3CCN(c4ccc(C(=O)NC5CCC(=O)NC5=O)nc4)C3)CC2)c(F)c1 (centres unmarked)", "6611 AUC (h*ng/mL)/dose (mg/kg)"]
]}

Provide each entry's DNAUC from the list below.
1. NC(=O)c1nnc(N2CCCCC2)nc1Nc1ccc(N2CCN(CC3CCN(c4ccc(C(=O)NC5CCC(=O)NC5=O)nc4)CC3)CC2)c(F)c1 (centres unmarked)
2. NC(=O)c1nnc(N2CCCCC2)nc1Nc1ccc(N2CCN(CC3CCN(c4ccc5c(c4)C(=O)N(C4CCC(=O)NC4=O)C5=O)C3)CC2)c(F)c1 (centres unmarked)
3. Cc1cc(N2CCC(CN3CCN(c4ccc(Nc5nc(N6CCCCC6)nnc5C(N)=O)cc4F)CC3)CC2)ccc1N1CCC(=O)NC1=O

1. 579 AUC (h*ng/mL)/dose (mg/kg)
2. 456 AUC (h*ng/mL)/dose (mg/kg)
3. 1125 AUC (h*ng/mL)/dose (mg/kg)

###

ASSAY_COMMENT: Liver microsomal metabolic stability, mouse
Assay type: in vitro ADME
CONDITION_DETAILS: mouse liver microsomes, NADPH, 37° C.
Thalf (min) Mouse strictly less than 80 min = True. Otherwise False.

// known answers, use as guide
{"columns": ["MOLECULE", "CLASS_LABEL"],
 "data": [
  ["CC(=O)N[C@@H]1CCCN(c2nnc(C(N)=O)c(Nc3ccc(C4CCN(CC5CCN(c6ccc7c(c6)C(=O)N(C6CCC(=O)NC6=O)C7=O)CC5)CC4)cc3)n2)C1 (some centres unmarked) [Compound 023]", "True"],
  ["NC(=O)c1nnc(N2CCCCC2)nc1Nc1ccc(C2CCN(CC3CCN(c4ccc5c(c4)C(=O)N(C4CCC(=O)NC4=O)C5=O)C3)CC2)c(F)c1 (centres unmarked) [Compound 002]", "True"],
  ["CC(=O)N[C@@H]1CCCN(c2nnc(C(N)=O)c(Nc3ccc(N4CCN(CC5CCN(c6ccc(N7CCC(=O)NC7=O)c(C)c6)CC5)CC4)c(F)c3)n2)C1 [Compound 090]", "True"],
  ["CC(=O)N[C@@H]1CCCN(c2nnc(C(N)=O)c(Nc3ccc(N4CCN(CC5CCN(c6ccc(C(=O)NC7CCC(=O)NC7=O)nc6)CC5)CC4)c(F)c3)n2)C1 (some centres unmarked) [Compound 092]", "False"],
  ["NC(=O)c1nnc(N2CCCCC2)nc1Nc1ccc(C2CCN(CC3CCN(c4ccc5c(c4)C(=O)N(C4CCC(=O)NC4=O)C5=O)C3)CC2)cc1 (centres unmarked) [Compound 001]", "True"]
]}

Given the entry NC(=O)c1nnc(N2CCCCC2)nc1Nc1ccc(N2CCC(CN3CCN(c4cc5c(cc4F)C(=O)N(C4CCC(=O)NC4=O)C5=O)CC3)CC2)c(F)c1 (centres unmarked) [Compound 045] , would its reported Thalf (min) Mouse be below 80 min? False

Lookup CC(=O)N[C@@H]1CCCN(c2nnc(C(N)=O)c(Nc3ccc(C4CCN(CC5CCN(c6ccc7c(c6)C(=O)N(C6CCC(=O)NC6=O)C7=O)C5)CC4)cc3)n2)C1 (some centres unmarked) [Compound 016] True

###

TARGET_DESC: BTK (Homo sapiens)
Construct: endogenous in cells; host or cells: Mino cells
Sequence (Q06187 whole entry): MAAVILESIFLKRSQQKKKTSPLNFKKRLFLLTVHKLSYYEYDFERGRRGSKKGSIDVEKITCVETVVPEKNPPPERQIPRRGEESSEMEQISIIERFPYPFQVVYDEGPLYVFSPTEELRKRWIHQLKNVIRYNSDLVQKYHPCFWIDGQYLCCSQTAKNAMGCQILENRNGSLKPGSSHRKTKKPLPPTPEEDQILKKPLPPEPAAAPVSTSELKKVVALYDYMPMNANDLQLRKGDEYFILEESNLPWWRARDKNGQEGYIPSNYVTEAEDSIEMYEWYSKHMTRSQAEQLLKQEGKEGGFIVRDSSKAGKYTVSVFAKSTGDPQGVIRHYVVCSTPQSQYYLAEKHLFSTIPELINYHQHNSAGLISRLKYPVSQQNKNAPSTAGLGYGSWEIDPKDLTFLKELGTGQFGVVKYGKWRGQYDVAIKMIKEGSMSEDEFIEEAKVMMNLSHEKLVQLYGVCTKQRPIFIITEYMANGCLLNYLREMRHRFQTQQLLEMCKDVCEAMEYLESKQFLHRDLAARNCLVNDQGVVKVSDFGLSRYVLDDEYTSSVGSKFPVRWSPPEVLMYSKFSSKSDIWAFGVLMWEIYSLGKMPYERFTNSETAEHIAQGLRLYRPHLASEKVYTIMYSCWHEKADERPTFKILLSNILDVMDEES
ASSAY_COMMENT: BTK degradation activity test in Mino cells (Westernblot or Elisa)
Type: cell-based
CONDITION_DETAILS: 24-72 h incubation
ENDPOINT_LABEL: DC50

Provide each entry's DC50 from the list below.
1. NC(=O)c1nnc(N2CCOCC2)nc1Nc1ccc(N2CCN(CC3CCN(c4ccc(C(=O)NC5CCC(=O)NC5=O)nc4)CC3)CC2)c(F)c1 (stereo not drawn)
2. CC(=O)N[C@@H]1CCCN(c2nnc(C(N)=O)c(Nc3ccc(N4CCN(CC5CCN(c6ccc(NC7CCC(=O)NC7=O)nc6)CC5)CC4)c(F)c3)n2)C1 (stereo partly drawn)
3. CC(OC(=O)C(C)(C)C)N1C(=O)CCC(N2C(=O)c3ccc(N4CCC(CN5CCC(c6ccc(Nc7nc(N8CCCCC8)nnc7C(N)=O)cc6)CC5)C4)cc3C2=O)C1=O (stereo not drawn)

< 10 nM
< 10 nM
< 10 nM

###

Tested on: OCI-LY10 cells
ASSAY_COMMENT: Inhibitory activity on OCI-LY10 cell proliferation (MTS)
Assay type: cell-based
CONDITION_DETAILS: Homo sapiens, 72 h or 168 h
Consider the following compounds; for each one, report its IC50.
Answers are plain numbers, in nM.

Example results:
{"columns": ["COMPOUND", "TARGET_DESC", "IC50, nM"],
 "data": [
  ["Cc1cc(N2CCC(CN3CCN(c4ccc(Nc5nc(N6CCCCC6)nnc5C(N)=O)cc4F)CC3)CC2)ccc1N1CCC(=O)NC1=O [Compound 075]", "OCI-LY10 cells", 0.51],
  ["NC(=O)c1nnc(N2CCCCC2)nc1Nc1ccc(N2CCN(CC3CCN(c4ccc(NC5CCC(=O)NC5=O)c(F)c4)CC3)CC2)c(F)c1 (stereo not shown) [Compound 088]", "OCI-LY10 cells", 0.66],
  ["NC(=O)c1nnc(N2CCOCC2)nc1Nc1ccc(N2CCN(CC3CCN(c4ccc(C(=O)NC5CCC(=O)NC5=O)nc4)CC3)CC2)c(F)c1 (stereo not shown) [Compound 100]", "OCI-LY10 cells", 0.39],
  ["CC(=O)N[C@@H]1CCCN(c2nnc(C(N)=O)c(Nc3ccc(C4CCN(CC5CCN(c6ccc7c(c6)C(=O)N(C6CCC(=O)NC6=O)C7=O)C5)CC4)cc3)n2)C1 (stereo partly shown) [Compound 016]", "OCI-LY10 cells", 0.32],
  ["NC(=O)c1nnc(N2CCCCC2)nc1Nc1ccc(C2CCN(CC3CCN(c4ccc(NC5CCC(=O)NC5=O)cn4)C3)CC2)cc1 (stereo not shown) [Compound 014]", "OCI-LY10 cells", 0.67]
]}

Provide each entry's IC50 from the list below.
1. COc1cc(N2CCC(CN3CCN(c4ccc(Nc5nc(N6CCCCC6)nnc5C(N)=O)cc4F)CC3)CC2)ccc1N1CCC(=O)NC1=O [Compound 082]
2. NC(=O)c1nnc(N2CCCCC2)nc1Nc1ccc(N2CCN(CC3CCN(c4ccc(C(=O)NC5CCC(=O)NC5=O)c(F)c4)CC3)CC2)c(F)c1 (stereo not shown) [Compound 083]
3. CC(=O)N[C@@H]1CCCN(c2nnc(C(N)=O)c(Nc3ccc(N4CCN(CC5CCN(c6ccc(N7CCC(=O)NC7=O)c(C)c6)CC5)CC4)c(F)c3)n2)C1 [Compound 090]
4. NC(=O)c1nnc(N2CCOCC2)nc1Nc1ccc(C2CCN(CC3CCN(c4ccc5c(c4)C(=O)N(C4CCC(=O)NC4=O)C5=O)C3)CC2)cc1 (stereo not shown) [Compound 019]
5. CC(=O)N[C@@H]1CCCN(c2nnc(C(N)=O)c(Nc3ccc(N4CCN(CC5CCN(c6ccc(C(=O)NC7CCC(=O)NC7=O)nc6)CC5)CC4)c(F)c3)n2)C1 (stereo partly shown) [Compound 092]

1: 0.64; 2: 1.24; 3: 0.89; 4: 1.1; 5: 0.24

###

Tested on: Mino cells
ASSAY_COMMENT: Inhibitory activity on Mino cell proliferation (MTS)
Assay type: cell-based
CONDITION_DETAILS: Homo sapiens, 72 h or 168 h
Consider the following compounds; for each one, report its pIC50.
One number for each entry, as −log10 of the molar value.

Example results:
{"columns": ["COMPOUND", "pIC50"],
 "data": [
  ["COc1cc(N2CCC(CN3CCN(c4ccc(Nc5nc(N6CCCCC6)nnc5C(N)=O)cc4F)CC3)CC2)ccc1N1CCC(=O)NC1=O", 8.64],
  ["NC(=O)c1cnc(N2CCCCC2)nc1Nc1ccc(C2CCN(CC3CCN(c4ccc5c(c4)C(=O)N(C4CCC(=O)NC4=O)C5=O)C3)CC2)cc1 (centres unmarked)", 8.04],
  ["Cc1cc(N2CCC(=O)NC2=O)ccc1N1CCC(CN2CCN(c3ccc(Nc4nc(N5CCCCC5)nnc4C(N)=O)cc3F)CC2)CC1", 8.48],
  ["Cc1cc(N2CCC(CN3CCN(c4ccc(Nc5nc(N6CCCCC6)nnc5C(N)=O)cc4F)CC3)CC2)ccc1N1CCC(=O)NC1=O", 8.85],
  ["Cn1c(=O)n(C2CCC(=O)NC2=O)c2ccc(N3CCC(CN4CCC(c5ccc(Nc6nc(N7CCCCC7)nnc6C(N)=O)cc5)CC4)C3)cc21 (centres unmarked)", 8.38]
]}

Provide each entry's pIC50 from the list below.
1. NC(=O)c1nnc(N2CCCCC2)nc1Nc1ccc(C2CCN(CC3CCN(c4ccc(NC5CCC(=O)NC5=O)cn4)C3)CC2)cc1 (centres unmarked)
2. CC(=O)N[C@@H]1CCCN(c2nnc(C(N)=O)c(Nc3ccc(N4CCN(CC5CCN(c6ccc(N7CCC(=O)NC7=O)c(C)c6)CC5)CC4)c(F)c3)n2)C1
3. NC(=O)c1nnc(N2CCCCC2)nc1Nc1ccc(C2CCN(CC3CCN(c4ccc5c(=O)n(C6CCC(=O)NC6=O)ccc5c4)C3)CC2)cc1 (centres unmarked)

[8.38, 8.71, 8.91]

Provide each entry's pIC50 from the list below.
1. NC(=O)c1nnc(N2CCCCC2)nc1Nc1ccc(C2CCN(CC3CCN(c4ccc5c(c4)C(=O)N(C4CCC(=O)NC4=O)C5=O)CC3)CC2)c(F)c1 (centres unmarked)
2. CC(=O)N[C@@H]1CCCN(c2nnc(C(N)=O)c(Nc3ccc(C4CCN(CC5CCN(c6ccc7c(c6)C(=O)N(C6CCC(=O)NC6=O)C7=O)C5)CC4)cc3)n2)C1 (some centres unmarked)

[8.27, 8.84]

Provide each entry's pIC50 from the list below.
1. CC(=O)N[C@@H]1CCCN(c2nnc(C(N)=O)c(Nc3ccc(N4CCN(CC5CCN(c6ccc(C(=O)NC7CCC(=O)NC7=O)nc6)CC5)CC4)c(F)c3)n2)C1 (some centres unmarked)
2. NC(=O)c1nnc(N2CCCCC2)nc1Nc1ccc(C2CCN(CC3CCN(c4ccc5c(c4)C(=O)N(C4CCC(=O)NC4=O)C5=O)C3)CC2)cc1 (centres unmarked)

[8.48, 8.26]

Provide each entry's pIC50 from the list below.
1. NC(=O)c1nnc(N2CCOCC2)nc1Nc1ccc(N2CCN(CC3CCN(c4ccc(C(=O)NC5CCC(=O)NC5=O)nc4)CC3)CC2)c(F)c1 (centres unmarked)
2. CC(=O)N[C@@H]1CCCN(c2nnc(C(N)=O)c(Nc3ccc(C4CCN(CC5CCN(c6ccc7c(c6)C(=O)N(C6CCC(=O)NC6=O)C7=O)CC5)CC4)cc3)n2)C1 (some centres unmarked)

[8.42, 8.17]
